target entity: T1, human GLP-1 receptor (human, UniProt P43220 24-463)
T1 construct: whole, on cells; Used as purified plasma membranes of the transfected hamster cell line, not as intact cells; also called hGLP-1
test method notes: SPA, displacement of 125I-GLP-1(7-36)NH2 from hGLP-1R membranes, 0.005% HSA
pIC50: −log10 of the molar value. Numbered stars: 1 amine (or outer) side, 2 acyl side, 3 side chain; on linkers, the order of the positions; unused ones are H or OH. Square brackets hold non-standard residues; d marks the D form. Side chains are listed from the residue outwards. Ends that are not written are not given here. * marks the point of attachment. C18 diacid = O=C(O)CCCCCCCCCCCCCCCCC(=O)*; γGlu = O=C(O)[C@H](CCC(=O)[*:2])N[*:1]; AEEA = NCCOCCOCC(=O)O; Aib = CC(C)(N)C(=O)O
quantity measured: pIC50

H[Aib]EGTFTSDVSSYLEGQAIRK([AEEA-AEEA-γGlu-C18 diacid])FIAHLVQGRG	> 6.22
HGEGTFTSDVSSYLEGQAAK([AEEA-AEEA-γGlu-C18 diacid])EFIAHLVQGRG	> 6.22

-- ask Requested read-out: pIC50. Entry: HXEGTFTSDVSSYLEGQAAKEFIAHLVQGRG (Aib8; Lys26 N-epsilon-acylated (side chain as in name); GLP-1(7-37) numbering)
-- reply > 6.22

Provenance of the data: patent US8815802
